IC50 for assorted molecules
Target: recombinantly expressed human sodium-dependent ileal bile acid transporter (IBAT) (Homo sapiens)
Construct: Bases 599 to 1645 correspond to the complete coding region of the human IBAT
Sequence (Q12908 1-348): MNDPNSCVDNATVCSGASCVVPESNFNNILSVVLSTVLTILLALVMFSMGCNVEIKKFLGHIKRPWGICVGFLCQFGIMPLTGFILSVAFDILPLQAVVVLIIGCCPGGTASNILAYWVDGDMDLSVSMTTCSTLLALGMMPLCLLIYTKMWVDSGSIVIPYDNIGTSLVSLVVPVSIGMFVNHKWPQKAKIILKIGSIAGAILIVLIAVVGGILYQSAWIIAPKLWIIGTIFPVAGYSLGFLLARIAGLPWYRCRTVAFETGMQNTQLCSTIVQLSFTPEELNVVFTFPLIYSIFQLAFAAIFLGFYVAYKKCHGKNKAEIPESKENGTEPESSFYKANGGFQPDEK
Assay: in vitro IBAT inhibition test ([3H]-taurocholic acid uptake into CHO-hIBAT cells)
Settings: CHO-hIBAT cells, taurocholic acid 10 μM, 60 min at room temperature
Please respond with the number in nM and leave the unit unwritten.

Per the records, this molecule ( "CCCCC1(CCCC)CS(=O)(=O)c2ccc(N(C)C)cc2[C@@H](c2cccc(NC(=O)NC[C@H](O)[C@@H](O)[C@H](O)[C@H](O)CO)c2)N1" ) has IC50 equal to 155

Others:
Record CCCCC1(CCCC)CS(=O)(=O)c2ccc(N(C)C)cc2[C@@H](c2cccc(NC(=O)[C@H](O)[C@@H](O)[C@H](O)[C@H](O)CO)c2)N1 [compound 11a, reference compound] , field IC50: 319
